The reported measurements were obtained from ChEMBL document CHEMBL4196175.

# targetOrTestSystem: Mitogen-activated protein kinase kinase kinase kinase 2 (Homo sapiens, UniProt Q12851)
# Sequence (Q12851 whole entry): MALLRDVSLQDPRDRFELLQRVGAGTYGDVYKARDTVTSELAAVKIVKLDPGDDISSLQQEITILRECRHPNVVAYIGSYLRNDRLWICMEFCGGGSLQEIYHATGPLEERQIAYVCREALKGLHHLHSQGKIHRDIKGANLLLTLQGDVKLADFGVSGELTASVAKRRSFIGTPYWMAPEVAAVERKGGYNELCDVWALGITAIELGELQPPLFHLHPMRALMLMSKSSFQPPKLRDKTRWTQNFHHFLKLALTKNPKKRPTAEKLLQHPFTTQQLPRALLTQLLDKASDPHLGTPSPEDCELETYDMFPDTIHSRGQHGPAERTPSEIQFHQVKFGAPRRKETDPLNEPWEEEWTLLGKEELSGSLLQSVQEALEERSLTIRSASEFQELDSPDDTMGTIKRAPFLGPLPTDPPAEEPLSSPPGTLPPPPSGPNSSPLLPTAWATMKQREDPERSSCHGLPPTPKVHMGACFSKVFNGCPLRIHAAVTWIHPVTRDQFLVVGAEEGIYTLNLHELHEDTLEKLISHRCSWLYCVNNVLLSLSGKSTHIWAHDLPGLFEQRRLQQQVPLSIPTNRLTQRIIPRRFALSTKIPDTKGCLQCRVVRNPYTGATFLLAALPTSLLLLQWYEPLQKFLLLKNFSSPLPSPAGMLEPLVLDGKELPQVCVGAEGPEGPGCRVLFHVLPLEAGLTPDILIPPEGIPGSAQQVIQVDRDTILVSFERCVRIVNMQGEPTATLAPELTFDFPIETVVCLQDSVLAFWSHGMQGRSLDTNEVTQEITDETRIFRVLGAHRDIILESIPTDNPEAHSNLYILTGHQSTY
# methodSummary: Inhibition of GCK (unknown origin) by radiometric biochemical kinase assay
pIC50: −log10 of the molar value.
The label depends only on pIC50: met if it is at least 8, not met if it is smaller.

{"columns": ["compound", "className"],
 "data": [
  ["Cc1ccc(NC(=O)c2cccc(C(F)(F)F)c2)cc1N1Cc2cnc(NCCO)nc2N(C)C1=O", "not met"],
  ["Cc1ccc(Nc2ncc3c(n2)N(C)C(=O)N(c2cc(NC(=O)c4ccc(CN5CCC(N(C)C)C5)c(C(F)(F)F)c4)ccc2C)C3)cn1 (stereo not given)", "met"],
  ["Cc1ccc(Nc2ncc3c(n2)N(C)C(=O)N(c2cc(NC(=O)c4ccc(CN5CCN(C)CC5)c(C(F)(F)F)c4)ccc2C)C3)cn1", "met"],
  ["Cc1ccc(NC(=O)c2cccc(C(F)(F)F)c2)cc1N1Cc2cnc(NC3CC3)nc2N(C)C1=O", "not met"],
  ["Cc1ccc(NC(=O)c2cccc(C(F)(F)F)c2)cc1N1Cc2cnc(Nc3ccccc3)nc2N(C)C1=O", "not met"],
  ["Cc1ccc(Nc2ncc3c(n2)N(C)C(=O)N(c2cc(NC(=O)c4ccc(C)c(C(F)(F)F)c4)ccc2C)C3)cn1", "not met"]
]}

Does the compound Cc1ccc(Nc2ncc3c(n2)N(C)C(=O)N(c2cc(NC(=O)c4ccc(-n5cccc5)c(C(F)(F)F)c4)ccc2C)C3)cn1 have recorded pIC50 that is 8 or more?
not met

Determine whether this compound has pIC50 no lower than 8: Cc1ccc(Nc2ncc3c(n2)N(C)C(=O)N(c2cc(NC(=O)c4cc(N5CCC(O)CC5)cc(C(F)(F)F)c4)ccc2C)C3)cn1
not met

Has Cc1ccc(NC(=O)c2cccc(C(F)(F)F)c2)cc1N1Cc2cnc(NC3CCCCC3)nc2N(C)C1=O a recorded pIC50 greater than or equal to 8?
not met

====

# targetOrTestSystem: CYP3A4 (Homo sapiens, UniProt P08684)
# Sequence (P08684 whole entry): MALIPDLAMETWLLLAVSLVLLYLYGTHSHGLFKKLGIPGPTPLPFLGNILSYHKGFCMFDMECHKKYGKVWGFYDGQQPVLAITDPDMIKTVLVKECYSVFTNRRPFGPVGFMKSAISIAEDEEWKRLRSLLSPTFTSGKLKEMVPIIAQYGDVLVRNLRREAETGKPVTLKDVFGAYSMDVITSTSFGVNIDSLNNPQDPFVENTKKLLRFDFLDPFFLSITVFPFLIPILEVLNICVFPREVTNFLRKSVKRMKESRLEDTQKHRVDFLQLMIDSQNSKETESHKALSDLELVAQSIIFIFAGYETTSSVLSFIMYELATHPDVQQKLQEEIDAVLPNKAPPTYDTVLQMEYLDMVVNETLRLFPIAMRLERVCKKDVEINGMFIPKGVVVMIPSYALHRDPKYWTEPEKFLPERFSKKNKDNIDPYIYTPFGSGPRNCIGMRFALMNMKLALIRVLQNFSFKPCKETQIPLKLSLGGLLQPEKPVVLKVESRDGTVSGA
# methodSummary: Inhibition of CYP3A4 (unknown origin) assessed as activity remaining at 10 uM relative to control
# Type: ADME
# testSettings: read-out: Activity
experimentalEndpoint: activity at 10 µM

Sample answers from the record:
{"columns": ["molecule", "experimentalEndpoint", "obsValue"],
 "data": [
  ["CCN1CCN(C(=O)c2ccc(Nc3ncc4c(n3)N(C)C(=O)N(c3cc(NC(=O)c5cccc(C(F)(F)F)c5)ccc3C)C4)cn2)CC1", "activity at 10 µM", "94.2%"],
  ["CCN1CCN(c2ccc(Nc3ncc4c(n3)N(C)C(=O)N(c3cc(NC(=O)c5cccc(C(F)(F)F)c5)ccc3C)C4)cc2)CC1", "activity at 10 µM", "> 100%"],
  ["CCN1CCN(c2ccc(Nc3ncc4c(n3)N(C)C(=O)N(c3cc(NC(=O)c5cccc(C(F)(F)F)c5)ccc3C)C4)cn2)CC1", "activity at 10 µM", "> 100%"]
]}

Okay, next one:
Input Cc1ccc(Nc2ncc3c(n2)N(C)C(=O)N(c2cc(NC(=O)c4cccc(C(F)(F)F)c4)ccc2C)C3)cn1 . Output activity at 10 µM: > 100%

====

# targetOrTestSystem: Activated CDC42 kinase 1 (Homo sapiens)
# Sequence (Q07912 whole entry): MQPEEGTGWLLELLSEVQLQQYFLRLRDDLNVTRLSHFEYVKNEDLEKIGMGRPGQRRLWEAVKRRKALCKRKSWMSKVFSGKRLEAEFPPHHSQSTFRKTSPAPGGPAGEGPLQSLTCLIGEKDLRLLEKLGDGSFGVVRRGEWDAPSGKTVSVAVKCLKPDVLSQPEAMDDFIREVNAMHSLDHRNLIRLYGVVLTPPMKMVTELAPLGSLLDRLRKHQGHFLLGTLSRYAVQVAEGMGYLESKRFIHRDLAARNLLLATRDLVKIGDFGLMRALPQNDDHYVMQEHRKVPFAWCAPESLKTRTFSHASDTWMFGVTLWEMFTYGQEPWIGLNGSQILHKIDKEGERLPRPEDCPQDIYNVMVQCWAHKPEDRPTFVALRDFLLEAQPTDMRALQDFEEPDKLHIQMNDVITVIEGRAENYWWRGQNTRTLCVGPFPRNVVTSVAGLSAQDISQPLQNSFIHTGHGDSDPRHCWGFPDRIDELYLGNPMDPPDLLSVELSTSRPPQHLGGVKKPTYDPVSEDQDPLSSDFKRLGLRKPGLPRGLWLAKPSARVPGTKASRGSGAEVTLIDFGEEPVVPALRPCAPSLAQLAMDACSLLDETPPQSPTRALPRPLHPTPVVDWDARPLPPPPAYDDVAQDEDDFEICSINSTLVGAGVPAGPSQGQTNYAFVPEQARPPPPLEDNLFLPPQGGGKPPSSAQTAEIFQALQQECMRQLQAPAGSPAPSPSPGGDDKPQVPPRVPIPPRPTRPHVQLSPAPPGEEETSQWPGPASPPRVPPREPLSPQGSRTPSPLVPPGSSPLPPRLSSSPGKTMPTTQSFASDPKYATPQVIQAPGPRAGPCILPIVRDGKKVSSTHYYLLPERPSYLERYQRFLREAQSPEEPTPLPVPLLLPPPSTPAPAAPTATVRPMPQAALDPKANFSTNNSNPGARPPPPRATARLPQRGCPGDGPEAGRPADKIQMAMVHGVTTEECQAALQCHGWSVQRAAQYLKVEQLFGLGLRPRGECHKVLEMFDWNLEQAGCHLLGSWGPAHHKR
# methodSummary: Inhibition of ACK1 (unknown origin) by radiometric biochemical kinase assay
experimentalEndpoint: pIC50
Lab note — pIC50 values are minus log10 of concentrations in M.

Field: example entries. Status: answers known.
{"columns": ["molecule", "obsValue"],
 "data": [
  ["CCN1CCN(c2ccc(Nc3ncc4c(n3)N(C)C(=O)N(c3cc(NC(=O)c5cccc(C(F)(F)F)c5)ccc3C)C4)cc2)CC1", 7.70],
  ["Cc1ccc(NC(=O)c2ccc(CN3CCC(N(C)C)C3)c(C(F)(F)F)c2)cc1N1Cc2cnc(Nc3cnn(C)c3)nc2N(C)C1=O (configuration not stated)", 7.60],
  ["Cc1ccc(Nc2ncc3c(n2)N(C)C(=O)N(c2cc(NC(=O)c4ccc(-n5cccc5)c(C(F)(F)F)c4)ccc2C)C3)cn1", 8.00],
  ["Cc1ccc(NC(=O)c2cccc(C(F)(F)F)c2)cc1N1Cc2cnc(N)nc2N(C)C1=O", 7.74]
]}

Recorded result, Cc1ccc(NC(=O)c2cccc(C(F)(F)F)c2)cc1N1Cc2cnc(NC3CCCCC3)nc2N(C)C1=O , pIC50: 7.22

Form: molecule = Cc1ccc(NC(=O)c2cccc(C(F)(F)F)c2)cc1N1Cc2cnc(NC3CC3)nc2N(C)C1=O ; pIC50 = 7.46

Summary for this molecule, Cc1ccc(Nc2ncc3c(n2)N(C)C(=O)N(c2cc(NC(=O)c4ccc(C)c(C(F)(F)F)c4)ccc2C)C3)cn1 : pIC50 is 7.70

====

# methodSummary: AUCinfinity in mouse at 10 mg/kg, po
# Type: ADME, organism-based
# Parameters: dose 10 mg/kg, route oral, time infinity
# testSettings: in vivo
experimentalEndpoint: AUC(0-inf) (ng·h/mL)
I only need the number, in ng·h/mL, no unit after it.

For Cc1ccc(NC(=O)c2cccc(C(F)(F)F)c2)cc1N1Cc2cnc(N)nc2N(C)C1=O the compound record lists AUC(0-inf) as 52500

====

# targetOrTestSystem: Activated CDC42 kinase 1 (Homo sapiens)
# methodSummary: Inhibition of ACK1 (unknown origin) by radiometric biochemical kinase assay
experimentalEndpoint: IC50 (nM)
Kindly answer with a numeric value in nM, unit omitted.

For Cc1ccc(Nc2ncc3c(n2)N(C)C(=O)N(c2cc(NC(=O)c4ccc(CN5CCN(C)CC5)c(C(F)(F)F)c4)ccc2C)C3)cn1 the molecule record lists IC50 as 26

Record CC(=O)N1CCN(c2ccc(Nc3ncc4c(n3)N(C)C(=O)N(c3cc(NC(=O)c5ccc(CN6CCC(N(C)C)C6)c(C(F)(F)F)c5)ccc3C)C4)cn2)CC1 (configuration not stated) , field IC50: 25

For Cc1ccc(NC(=O)c2cccc(C(F)(F)F)c2)cc1N1Cc2cnc(Nc3cnn(C)c3)nc2N(C)C1=O the molecule record lists IC50 as 20

Item: Cc1ccc(NC(=O)c2cccc(C(F)(F)F)c2)cc1N1Cc2cnc(NCCO)nc2N(C)C1=O | IC50: 21

Lab book: IC50 of Cc1ccc(Nc2ncc3c(n2)N(C)C(=O)N(c2cc(NC(=O)c4cc(-n5cnc(C)c5)cc(C(F)(F)F)c4)ccc2C)C3)cn1 noted as 53

What the record says about Cc1ccc(NC(=O)c2cccc(C(F)(F)F)c2)cc1N1Cc2cnc(Nc3ccccc3)nc2N(C)C1=O : IC50 is 37

For record Cc1cc(Nc2ncc3c(n2)N(C)C(=O)N(c2cc(NC(=O)c4cccc(C(F)(F)F)c4)ccc2C)C3)n(C)n1 the listed IC50 is 9

====

# targetOrTestSystem: Mitogen-activated protein kinase kinase kinase kinase 2 (Mus musculus) (UniProt Q61161)
# Sequence (whole entry): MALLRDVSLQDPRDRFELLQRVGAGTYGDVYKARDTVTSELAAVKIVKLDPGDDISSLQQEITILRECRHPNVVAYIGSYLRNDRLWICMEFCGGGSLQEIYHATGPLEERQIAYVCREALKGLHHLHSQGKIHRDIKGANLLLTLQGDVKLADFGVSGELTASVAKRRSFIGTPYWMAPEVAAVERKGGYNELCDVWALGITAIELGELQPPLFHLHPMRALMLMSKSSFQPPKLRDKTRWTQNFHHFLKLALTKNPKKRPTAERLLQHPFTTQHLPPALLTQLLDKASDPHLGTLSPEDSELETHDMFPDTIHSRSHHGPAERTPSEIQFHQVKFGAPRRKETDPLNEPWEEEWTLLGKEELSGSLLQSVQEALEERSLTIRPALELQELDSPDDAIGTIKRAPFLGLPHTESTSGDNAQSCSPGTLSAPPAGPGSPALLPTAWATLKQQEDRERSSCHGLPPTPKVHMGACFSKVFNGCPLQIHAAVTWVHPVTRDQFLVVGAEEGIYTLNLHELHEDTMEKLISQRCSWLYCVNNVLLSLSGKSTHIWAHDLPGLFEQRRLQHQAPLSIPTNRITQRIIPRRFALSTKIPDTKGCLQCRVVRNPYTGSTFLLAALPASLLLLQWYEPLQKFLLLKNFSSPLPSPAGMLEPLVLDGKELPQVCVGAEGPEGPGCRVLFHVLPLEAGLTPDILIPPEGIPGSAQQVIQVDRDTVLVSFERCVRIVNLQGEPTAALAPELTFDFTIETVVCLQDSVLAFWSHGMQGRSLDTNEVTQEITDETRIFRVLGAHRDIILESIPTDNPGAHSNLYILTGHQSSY
# methodSummary: Inhibition of GCK in mouse BA/F3 cells harboring NRAS-G12D mutant assessed as reduction in JNK phosphorylation at T183/Y185 at 1 uM after 2 hrs by Western blot analysis
# Assay type: cell-based
Calls of active or inactive are those of the source. The rule behind the calls is not given here.
experimentalEndpoint: reduction in JNK phosphorylation (active/inactive call)

{"columns": ["molecule", "obsValue"],
 "data": [
  ["CCN1CCN(C(=O)c2ccc(Nc3ncc4c(n3)N(C)C(=O)N(c3cc(NC(=O)c5cccc(C(F)(F)F)c5)ccc3C)C4)cn2)CC1", "Active"],
  ["Cc1ccc(NC(=O)c2cccc(C(F)(F)F)c2)cc1N1Cc2cnc(N)nc2N(C)C1=O", "Active"],
  ["Cc1cc(Nc2ncc3c(n2)N(C)C(=O)N(c2cc(NC(=O)c4cccc(C(F)(F)F)c4)ccc2C)C3)n(C)n1", "Active"],
  ["Cc1ccc(Nc2ncc3c(n2)N(C)C(=O)N(c2cc(NC(=O)c4ccc(CN5CCC(N(C)C)C5)c(C(F)(F)F)c4)ccc2C)C3)cn1 (centres undefined)", "Active"]
]}
